Target: Human Factor D (Homo sapiens)
Construct: purified from human serum; purchased Complement Technology, Inc; host or cells: human serum (natural protein, not recombinant)
Sequence (P00746 26-253): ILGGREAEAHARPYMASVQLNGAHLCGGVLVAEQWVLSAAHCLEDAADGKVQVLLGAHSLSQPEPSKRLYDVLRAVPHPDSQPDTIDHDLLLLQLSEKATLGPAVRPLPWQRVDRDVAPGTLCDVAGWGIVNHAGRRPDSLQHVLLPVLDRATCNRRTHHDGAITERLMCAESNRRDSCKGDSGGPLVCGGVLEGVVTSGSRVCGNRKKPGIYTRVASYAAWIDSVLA
Assay: Human Factor D Assay
Format: biochemical
Conditions: Human Factor D 80 nM, substrate Z-L-Lys-SBzl; Table 2; read-out: IC50 (Stars)
observable: IC50

Recorded IC50, per entry:
compound: CC(=O)c1nn(CC(=O)N2C[C@H]3C[C@H]3[C@H]2C(=O)Nc2cncc(Br)n2)c2c(C)cc(-c3cnc(CO)nc3)cc12
IC50: < 1 µM
//
compound: CC(=O)c1cn(CC(=O)N2[C@H](C(=O)Nc3nc(C(F)(F)F)ccc3C)C[C@@]3(C)C[C@@H]23)c2c(C)cc(-c3cnc(C)c(C)n3)cc12
IC50: < 1 µM
//
compound: CC(=O)c1cn(CC(=O)N2[C@H](C(=O)Nc3cc(C)cc(Br)n3)C[C@@]3(C)C[C@@H]23)c2c(C)cc(-c3cnc(C)nc3)cc12
IC50: < 1 µM
//
compound: CC(=O)c1nn(CC(=O)N2[C@H](C(=O)Nc3nc(Br)c(F)cc3C)C[C@@]3(C)C[C@@H]23)c2c(C)cc(-c3ccc(CO)nc3)cc12
IC50: < 1 µM
//
compound: CC(=O)c1nn(CC(=O)N2[C@H](C(=O)Nc3nc(Br)ccc3C)C[C@@]3(C)C[C@@H]23)c2c(C)cc(-c3cnc(C(C)O)nc3)cc12 (stereo partly drawn)
IC50: < 1 µM

Input line: Give the measured IC50 of CC(=O)c1nn(CC(=O)N2[C@H](C(=O)Nc3nc(Br)ccc3C)C[C@@]3(C)C[C@@H]23)c2ccc(-c3cncc(S(N)(=O)=O)c3)cc12 .
Output line: < 1 µM

Input line: Entry to check: CC(=O)c1nn(CC(=O)N2[C@H](C(=O)Nc3nc(Br)ccc3C)C[C@@]3(C)C[C@@H]23)c2c(C)cc(-c3cnc(C(C)O)cn3)cc12 (stereo partly drawn)
Output line: < 1 µM

Input line: Entry to check: CC(=O)c1cn(CC(=O)N2[C@H](C(=O)Nc3nc(Br)c(F)cc3C)C[C@@]3(C)C[C@@H]23)c2ccc(-c3cnc4cc(C)nn4c3)cc12
Output line: < 1 µM

Input line: Entry to check: CC(=O)c1nn(CC(=O)N2[C@H](C(=O)Nc3nc(Br)ccc3C)C[C@@]3(C)C[C@@H]23)c2c(C)cc(-c3cnc([C@H](C)O)nc3)cc12 (single isomer, unassigned)
Output line: < 1 µM

Input line: Entry to check: CC(=O)c1nn(CC(=O)N2[C@H](C(=O)Nc3nc(Br)c(F)cc3C)C[C@@]3(C)C[C@@H]23)c2c(C)cc(-c3cnc(CO)cn3)cc12
Output line: < 1 µM

Input line: Entry to check: CC(=O)c1cn(CC(=O)N2[C@H](C(=O)Nc3cncc(Br)n3)C[C@@]3(C)C[C@@H]23)c2c(C)cc(-c3cnc(C(C)O)nc3)cc12 (stereo partly drawn)
Output line: < 1 µM
